// cross-study collection: Ki for Cathepsin K (Homo sapiens, UniProt P43235)
MEASURE: Ki (µM)

Reference set, count: 5
COMPOUND: CC(C)(C)OC(=O)N[C@@H](CC1CC1)C(=O)NCC#N
SYSTEM UNDER TEST: Cathepsin K (Homo sapiens, UniProt P43235)
Sequence (P43235 whole entry): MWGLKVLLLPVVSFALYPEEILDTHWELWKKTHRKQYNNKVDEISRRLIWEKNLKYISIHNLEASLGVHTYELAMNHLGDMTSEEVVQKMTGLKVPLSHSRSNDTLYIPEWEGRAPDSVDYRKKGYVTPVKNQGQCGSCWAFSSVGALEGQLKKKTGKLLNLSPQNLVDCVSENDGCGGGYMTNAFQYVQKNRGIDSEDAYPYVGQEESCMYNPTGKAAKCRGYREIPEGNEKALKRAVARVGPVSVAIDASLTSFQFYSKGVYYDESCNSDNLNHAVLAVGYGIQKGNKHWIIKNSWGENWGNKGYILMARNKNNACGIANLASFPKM
UNIT LABEL: µM
Ki: 3.3

COMPOUND: COCC(=O)[C@H](CCc1ccccc1)NC(=O)[C@H](CC(C)C)NC(=O)OCc1ccccc1
SYSTEM UNDER TEST: Cathepsin K (Homo sapiens, UniProt P43235)
UNIT LABEL: µM
Ki: 0.607

COMPOUND: CC(C)C[C@H](NC(=O)c1cc2ccccc2o1)C(=O)N[C@@H]1C[C@@H](C)CN(S(=O)(=O)c2ccccn2)CC1=O
SYSTEM UNDER TEST: Cathepsin K (Homo sapiens, UniProt P43235)
UNIT LABEL: µM
Ki: 0.03

COMPOUND: O=C(N[C@@H](Cc1ccccc1)C(=O)N[C@H]1CCCN(S(=O)(=O)c2ccccn2)CC1=O)c1cc2ccccc2o1
SYSTEM UNDER TEST: Cathepsin K (Homo sapiens, UniProt P43235)
UNIT LABEL: µM
Ki: 0.0105

COMPOUND: CC(C)(C)OC(=O)N[C@@H](Cc1cccc(-c2ccccc2)c1)C(=O)NCC#N
SYSTEM UNDER TEST: Cathepsin K (Homo sapiens, UniProt P43235)
UNIT LABEL: µM
Ki: 26

1: CC(C)(C)OC(=O)N[C@@H](Cc1ccccc1F)C(=O)NCC#N
2: CC(C)C[C@H](NC(=O)c1cc2ccccc2o1)C(=O)N[C@H]1C[C@@H](C)CN(S(=O)(=O)c2ccccn2)CC1=O
Query: Hey, which is lower on measured Ki, 1 or 2 ? # respond with the chosen item's label
Result: 2
(2: 0.029 µM, 1: 3.3 µM)

I: CCCC[C@H](NC(=O)OC(C)(C)C)C(=O)NCC#N
II: CC(C)C[C@H](NC(=O)c1cc2cc(OCCN3CCOCC3)ccc2o1)C(=O)N[C@H]1CCCN(C(=O)Cc2cccc(-c3ccccn3)c2)CC1=O
Query: Field: entry with larger Ki (options I / II ). # respond with the chosen item's label
Result: I

a: CC(C)C[C@H](NC(=O)c1cc2ccccc2o1)C(=O)N[C@@H](C)C(=O)CNS(=O)(=O)c1ccccn1
b: CCC[C@H](NC(=O)C1(NC(=O)c2ccc(N(C)C)cc2)CCCCC1)C(=O)c1nnc(-c2ccco2)o1
Query: Hey, which is lower on measured Ki, a or b ? # respond with the chosen item's label
Result: b

A: CS(=O)(=O)CC[C@@H](CNc1ccc(OC(F)(F)F)cc1)NC(=O)[C@@H](CC(=O)N1CCOCC1)CC1CCCCC1
B: CCC[C@H](NC(=O)[C@H](CC(C)C)NCC(F)(F)F)C(=O)c1nnc(-c2ccco2)o1
Query: Hey, which is lower on measured Ki, A or B ? # respond with the chosen item's label
Result: B
(B: 0.12 µM, A: 0.26 µM)
